# Assayed system: recombinant full-length human hydroxyacid oxidase 1 (HAO1), the equivalent of hGOX (Homo sapiens (Human), UniProt Q9UJM8)
# Sequence (Q9UJM8 whole entry): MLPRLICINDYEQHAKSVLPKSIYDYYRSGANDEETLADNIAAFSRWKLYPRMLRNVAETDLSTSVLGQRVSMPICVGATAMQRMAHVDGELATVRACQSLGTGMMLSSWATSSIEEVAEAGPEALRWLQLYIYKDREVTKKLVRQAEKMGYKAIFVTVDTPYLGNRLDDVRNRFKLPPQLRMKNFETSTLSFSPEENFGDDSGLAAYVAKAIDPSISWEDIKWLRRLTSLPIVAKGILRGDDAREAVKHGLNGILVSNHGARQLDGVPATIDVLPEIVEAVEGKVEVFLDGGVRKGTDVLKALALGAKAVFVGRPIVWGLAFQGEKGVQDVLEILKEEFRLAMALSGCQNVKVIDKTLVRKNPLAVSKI
# Assay method text: In-vitro human glycolate oxidase (hGOX) assay (Amplex red/HRP fluorescence)
# Type: biochemical
# Settings: 12.5 nM HAO1, 85 μM glycolate, 2.5% DMSO; read-out: IC50
Assay endpoint: pIC50
One number for each entry, as −log10 of the molar value.

Solved cases below.
>  <Molecule>
O=C(O)c1nn[nH]c1Sc1ccc(C(F)(F)F)cc1 [Example I-016]

>  <Value>
6.09

$$$$
>  <Molecule>
O=C(O)c1nn[nH]c1Oc1ccc(-c2ccccn2)cc1 [Example I-261]

>  <Value>
6.82

$$$$
>  <Molecule>
COc1ccccc1Sc1[nH]nnc1C(=O)O [Example I-006]

>  <Value>
5.64

$$$$

Please give pIC50 for each item listed below.
1. CCOC(=O)c1nn[nH]c1Sc1ccccc1Cl [Example I-012]
2. CC(C)c1cccc(Oc2[nH]nnc2C(=O)O)c1 [Example I-278]
3. O=C(O)c1nn[nH]c1Sc1cccc(F)c1 [Example I-015]
4. Cc1ccc(Sc2[nH]nnc2C(=O)O)cc1 [Example I-003]

Return:
1: 3.60; 2: 6.64; 3: 6.89; 4: 6.80

Dear colleague, could you send me pIC50 for each of the items below? Thanks.
1. O=C(O)c1nn[nH]c1Oc1cccc(N2CCCC2)c1 [Example I-283]
2. O=C(O)c1nn[nH]c1Oc1cccc(C2CC2)c1 [Example I-293]
3. COc1ccc(Oc2[nH]nnc2C(=O)O)cc1 [Example I-035]
4. O=C(O)c1nn[nH]c1Sc1ccccc1F [Example I-013]
5. O=C(O)c1nn[nH]c1Oc1ccc(-c2cc(Cl)cc(Cl)c2)cc1 [Example I-300]
6. O=C(O)c1nn[nH]c1Oc1cccc(N2CCOCC2)c1 [Example I-282]

Return:
1. 6.76
2. 7.13
3. 6.59
4. 6.70
5. 7.48
6. 6.27

Parameters: items (list). Returns: pIC50 for each item.
1. C#Cc1ccc(Oc2[nH]nnc2C(=O)O)cc1 [Example I-297]
2. Cc1cc(Oc2[nH]nnc2C(=O)O)ccc1F [Example I-306]

Return:
1. 8.40
2. 7.21

Hi! Can you tell me pIC50 for each of these molecules?
1. O=C(O)c1[nH]nnc1Sc1ccc(Cl)c(Cl)c1 [Example I-025]
2. CC(C)c1ccc(Oc2[nH]nnc2C(=O)O)cc1 [Example I-274]

Return:
1: 7.37; 2: 6.95

###

# Assayed system: recombinant full-length human hydroxyacid oxidase 1 (HAO1), the equivalent of hGOX (Homo sapiens (Human))
# Assay method text: In-vitro human glycolate oxidase (hGOX) assay (Amplex red/HRP fluorescence)
# Format: biochemical
So I've got a bunch of compounds here, and I need their log10 of IC50 values.
The figures below represent log10 of IC50, where IC50 is stated in nM.

>  <Compound>
O=C(O)c1nn[nH]c1Oc1ccc(-c2ccc(F)cc2)cc1 [Example I-160]

>  <log10 of IC50>
1.08

$$$$

Record log10 of IC50 per entry; entries follow.
1. N#Cc1cccc(-c2ccc(Oc3[nH]nnc3C(=O)O)cc2)c1 [Example I-256]
2. Cc1cc(Oc2[nH]nnc2C(=O)O)ccc1Cl [Example I-258]
3. O=C(O)c1nn[nH]c1Oc1ccc(-c2ccc3ccccc3c2)cc1 [Example I-177]

Return:
[1.34, 1.64, 1.08]

# per-item lookup of log10 of IC50; items listed below
1. O=C(O)c1nn[nH]c1Oc1ccc(-c2ccccc2F)cc1 [Example I-174]
2. O=C(O)c1nn[nH]c1Oc1cccc(-c2ccc(Cl)c(Cl)c2)c1 [Example I-255]
3. CS(=O)(=O)c1ccc(-c2cccc(Oc3[nH]nnc3C(=O)O)c2)cc1 [Example I-257]
4. Cc1ccc(-c2ccc(Oc3[nH]nnc3C(=O)O)cc2)cc1 [Example I-151]

Return:
1.43
0.78
1.11
1.04

###

# Assayed system: recombinant full-length human hydroxyacid oxidase 1 (HAO1), the equivalent of hGOX (Homo sapiens (Human), UniProt Q9UJM8)
# Assay method text: In-vitro human glycolate oxidase (hGOX) assay (Amplex red/HRP fluorescence)
# Assay type: biochemical
# Settings: 12.5 nM HAO1, 85 μM glycolate, 2.5% DMSO; read-out: IC50
pIC50: −log10 of the molar value.
Assay endpoint: pIC50

Guide cases for pIC50, answers given:
>  <Smiles input>
O=C(O)c1nn[nH]c1OCc1ccc(Br)cc1

>  <Value>
< 5.00

$$$$
>  <Smiles input>
CCOC(=O)c1nn[nH]c1Nc1ccc(C)cc1

>  <Value>
< 3.30

$$$$

Enquiry: Given CCOC(=O)c1nn[nH]c1Sc1ccc(OC)cc1 , state its recorded pIC50.
Return: < 3.30

###

Provide the reported pIC50 of each item.
# Assayed system: recombinant full-length human hydroxyacid oxidase 1 (HAO1), the equivalent of hGOX (Homo sapiens (Human), UniProt Q9UJM8)
# Assay method text: In-vitro human glycolate oxidase (hGOX) assay (Amplex red/HRP fluorescence)
# Assay type: biochemical
Answers are plain numbers, as −log10 of the molar value.

// below: answered molecules
>  <Smiles input>
COc1ccc(-c2cccc(Oc3[nH]nnc3C(=O)O)c2)cc1

>  <Value>
7.60

$$$$
>  <Smiles input>
O=C(O)c1nn[nH]c1Oc1cncc(-c2cccnc2)c1

>  <Value>
6.42

$$$$

Enquiry: Returns the measured pIC50 for the input molecule. Input: C=Cc1ccc(Oc2[nH]nnc2C(=O)O)cc1
Return: 7.42
